Biological target: CDK2/cyclin A (Homo sapiens)
Construct: purchased Reaction Biology Corporation
Test: Kinase inhibition assay
Type: biochemical
Conditions: 10 μM ATP; 5-dose IC50 mode
OBSERVATION_TYPE: IC50

Q) Give CDK2/cyclin A (Homo sapiens) IC50 for the following compound: CN1CCN(c2ccc(Nc3ncc(/C=C/C#N)c(NC4CCCC4)n3)cc2)CC1 [Compound 8h]
A) > 1000 nM

###

Target: FGFR1 (Homo sapiens, UniProt P11362)
Construct: purchased Reaction Biology Corporation
Sequence (P11362 22-822): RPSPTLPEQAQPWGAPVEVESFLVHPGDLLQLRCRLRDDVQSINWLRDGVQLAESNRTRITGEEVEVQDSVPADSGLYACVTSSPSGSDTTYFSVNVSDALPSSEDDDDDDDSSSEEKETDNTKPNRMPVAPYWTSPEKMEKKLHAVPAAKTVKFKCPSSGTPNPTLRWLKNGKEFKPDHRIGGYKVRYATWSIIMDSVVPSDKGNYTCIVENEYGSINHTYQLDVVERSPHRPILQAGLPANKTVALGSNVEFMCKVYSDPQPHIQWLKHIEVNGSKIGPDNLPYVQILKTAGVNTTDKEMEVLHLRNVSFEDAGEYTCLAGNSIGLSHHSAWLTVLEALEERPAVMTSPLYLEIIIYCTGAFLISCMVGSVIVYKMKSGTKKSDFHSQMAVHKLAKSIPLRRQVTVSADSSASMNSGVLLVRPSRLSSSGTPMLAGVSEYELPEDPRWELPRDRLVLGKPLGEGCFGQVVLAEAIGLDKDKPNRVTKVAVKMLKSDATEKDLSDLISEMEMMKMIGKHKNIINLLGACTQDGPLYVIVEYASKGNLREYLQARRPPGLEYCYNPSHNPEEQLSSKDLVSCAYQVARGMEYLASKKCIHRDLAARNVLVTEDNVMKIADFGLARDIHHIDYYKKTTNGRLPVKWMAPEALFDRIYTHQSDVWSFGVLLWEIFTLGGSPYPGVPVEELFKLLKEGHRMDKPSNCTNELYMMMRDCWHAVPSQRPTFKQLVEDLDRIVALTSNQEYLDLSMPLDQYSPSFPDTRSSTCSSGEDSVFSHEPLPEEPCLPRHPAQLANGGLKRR
Assay: Kinase inhibition assay
Format: biochemical
Conditions: 10 μM ATP; 5-dose IC50 mode
Protocol: Kinase assays were performed at Reaction Biology Corporation. To a freshly prepared buffer solution was added the target kinase at a concentration of […]. The contents were mixed gently, and then compound 8h dissolved in DMSO was added to the reaction mixture in the appropriate concentration. The mixture was incubated at room temperature for 30 min. prior to addition of ATP to initiate the reaction. Compound 8h was tested in a 5-dose IC50 mode with 10-fold serial dilutions starting at 10 μM. […]
OBSERVATION_TYPE: IC50

Q) Please give the documented IC50 of `CN1CCN(c2ccc(Nc3ncc(/C=C/C#N)c(NC4CCCC4)n3)cc2)CC1`
A) < 100 nM
